- EXPERIMENTAL DETAILS: Partition coefficient Kpart between n-octanol and aqueous tris hydrochloride
- Format: physicochemical
- DETAILS: octanol/tris hydrochloride 20 mm, pH 7.4, mean of four or five samples; n-octanol / aqueous tris hydrochloride (20 mM, pH 7.4); read-out: partition coefficient Kpart, Mean ± S.E. (converted)
Each entry below carries its reported logD.

>  <MOLECULE>
CCc1c(O)c(=O)ccn1CCOC(=O)C(C)C

>  <logD>
0.667

$$$$

Let's switch to this molecule now.
Ask: // logD lookup, key: CCc1c(O)c(=O)ccn1CCOC(C)=O [CH3 COO, reference compound]
Result: 0.0366

---

- EXPERIMENTAL DETAILS: Partition coefficient Kpart between n-octanol and aqueous tris hydrochloride
- Type: physicochemical
- DETAILS: octanol/tris hydrochloride 20 mm; individual samples 1-5; n-octanol / aqueous tris hydrochloride (20 mM, pH 7.4); read-out: partition coefficient Kpart (concentration in n-octanol / concentration in aqueous phase), individual samples (converted)
MEASURE NAME: logD
Just the number, please, no unit attached.

Ask: // logD lookup, key: `CCc1c(O)c(=O)ccn1CCOC(=O)C(C)C`
Result: 0.699

Data origin: patent US5480894A
